# Test system: Escherichia coli TOP10
# protocol: shrunken log2 fold change of peptide-encoding DNA abundance (4.5 h post-induction vs induction); higher = less antimicrobial activity (less host growth inhibition)
# cond: time post-induction: 4.5 h; library: site-saturation at positions 5, 18, 19, 20
quantity-name: shrunken log2 fold change
API doc: respond with a numeric literal and nothing else, no unit.

Solved entries:
• RRIRGRPPRLPRPRPRPTCKPRP = 0.57
• RRIRMRPPRLPRPRPRPHAKPRP = 0.256
• RRIRSRPPRLPRPRPRPPFVPRP = 0.148
• RRIRSRPPRLPRPRPRPTKWPRP = -0.0872

Recorded shrunken log2 fold change of `RRIRKRPPRLPRPRPRPLTNPRP` , please. -0.0294

====

# Tested on: Escherichia coli TOP10
# protocol: shrunken log2 fold change of peptide-encoding DNA abundance (4.5 h post-induction vs induction); higher = less antimicrobial activity (less host growth inhibition)
# cond: time post-induction: 4.5 h; library: site-saturation at positions 5, 18, 19, 20
We use 0.04 as the dividing line for shrunken log2 fold change: on or above the line is 1, below is -1.

Example entries and their recorded answers appear below.
* RRIRCRPPRLPRPRPRPMNDPRP | -1
* RRIRMRPPRLPRPRPRPCGCPRP | -1
* RRIRFRPPRLPRPRPRPANHPRP | -1
* RRIRWRPPRLPRPRPRPDNDPRP | -1
* RRIRSRPPRLPRPRPRPKWSPRP | -1
* RRIRDRPPRLPRPRPRPCARPRP | 1
* RRIRERPPRLPRPRPRPRYQPRP | -1

Now look at this entry.
Please indicate if the recorded shrunken log2 fold change for `RRIRRRPPRLPRPRPRPDARPRP` meets or exceeds 0.04. 1

====

# Test system: Escherichia coli TOP10
# protocol: shrunken log2 fold change of peptide-encoding DNA abundance (4.5 h post-induction vs induction); higher = less antimicrobial activity (less host growth inhibition)
# cond: time post-induction: 4.5 h; library: site-saturation at positions 5, 18, 19, 20
// values below are reported shrunken log2 fold change

Solved cases (8 shown):
• RRIRWRPPRLPRPRPRPWLNPRP = -0.227
• RRIRTRPPRLPRPRPRPDMAPRP = -0.0628
• RRIRKRPPRLPRPRPRPVWIPRP = 0.0328
• RRIRTRPPRLPRPRPRPRHHPRP = -0.174
• RRIRQRPPRLPRPRPRPQFCPRP = -0.142
• RRIRERPPRLPRPRPRPPKPPRP = 0.122
• RRIRWRPPRLPRPRPRPWYTPRP = -0.0512
• RRIRWRPPRLPRPRPRPIIMPRP = -0.241

# input for lookup
Could you share which shrunken log2 fold change value was measured for `RRIRFRPPRLPRPRPRPWCGPRP` ? -0.142

====

# Test system: Escherichia coli TOP10
# protocol: shrunken log2 fold change of peptide-encoding DNA abundance (4.5 h post-induction vs induction); higher = less antimicrobial activity (less host growth inhibition)
# cond: time post-induction: 4.5 h; library: site-saturation at positions 5, 18, 19, 20
List of shrunken log2 fold change values.
Please reply with the number alone, leaving off any unit.

• RRIRIRPPRLPRPRPRPCKIPRP = -0.293

Which shrunken log2 fold change reading was recorded for the sequence `RRIRNRPPRLPRPRPRPLCDPRP` ? 0.0696

Need shrunken log2 fold change, item `RRIRRRPPRLPRPRPRPCHRPRP` -0.0875

Name the reported shrunken log2 fold change value associated with the sequence `RRIRGRPPRLPRPRPRPYQGPRP` 0.0167

If you can, please state the reported shrunken log2 fold change value of `RRIRCRPPRLPRPRPRPRQHPRP` . -0.0138

====

# System: Escherichia coli TOP10
# protocol: shrunken log2 fold change of peptide-encoding DNA abundance (4.5 h post-induction vs induction); higher = less antimicrobial activity (less host growth inhibition)
# cond: time post-induction: 4.5 h; library: site-saturation at positions 5, 18, 19, 20
shrunken log2 fold change by entry:
API doc: respond with a numeric literal and nothing else, no unit.

Examples with answers:
• RRIRQRPPRLPRPRPRPPETPRP = 0.00852
• RRIRNRPPRLPRPRPRPNCCPRP = -0.124
• RRIRTRPPRLPRPRPRPCWKPRP = -0.0202
• RRIRLRPPRLPRPRPRPECTPRP = 0.114
• RRIRKRPPRLPRPRPRPGKDPRP = 0.173

Fill in: shrunken log2 fold change of `RRIRDRPPRLPRPRPRPMFSPRP` is ___ -0.142

Fill in: shrunken log2 fold change of `RRIRGRPPRLPRPRPRPAMEPRP` is ___ 1

Endpoint output: shrunken log2 fold change of `RRIRTRPPRLPRPRPRPTGNPRP` . Value? -0.445

Any idea what shrunken log2 fold change was measured for `RRIRKRPPRLPRPRPRPMRDPRP` ? 0.0228

Form field: reported shrunken log2 fold change of `RRIRYRPPRLPRPRPRPKQWPRP` 0.0575

For the sequence shown here, `RRIRRRPPRLPRPRPRPLHWPRP` , give the reported shrunken log2 fold change. 0.235

Need shrunken log2 fold change of `RRIRPRPPRLPRPRPRPRPTPRP` , thanks. 0.869

shrunken log2 fold change for `RRIRDRPPRLPRPRPRPGYHPRP` ? -0.071

Give the measured shrunken log2 fold change of `RRIRWRPPRLPRPRPRPQIEPRP` . 0.0601

Suppose we examine the sequence `RRIRARPPRLPRPRPRPFHEPRP` ; what shrunken log2 fold change value has been reported? -0.166

For the sequence `RRIRYRPPRLPRPRPRPAGRPRP` , what shrunken log2 fold change is on record? 0.104

Reported shrunken log2 fold change, sequence `RRIRRRPPRLPRPRPRPSCKPRP` : ____ -0.398

# lookup: shrunken log2 fold change of `RRIRDRPPRLPRPRPRPRWWPRP` 0.0238

May I ask what shrunken log2 fold change has been recorded for `RRIRERPPRLPRPRPRPRDSPRP` ? 0.0154

Param item = `RRIRARPPRLPRPRPRPGPYPRP` ; retrieve measured shrunken log2 fold change. 1.85

Name the recorded shrunken log2 fold change for `RRIRCRPPRLPRPRPRPSEAPRP` . 0.125

State the recorded shrunken log2 fold change for this entry: `RRIRFRPPRLPRPRPRPIYGPRP` -0.289

Could you share which shrunken log2 fold change value was measured for `RRIRQRPPRLPRPRPRPRRLPRP` ? 0.752

Please give the measured shrunken log2 fold change for this sequence: `RRIRGRPPRLPRPRPRPEVHPRP` 0.141

====

# Tested on: Escherichia coli TOP10
# protocol: shrunken log2 fold change of peptide-encoding DNA abundance (4.5 h post-induction vs induction); higher = less antimicrobial activity (less host growth inhibition)
# cond: time post-induction: 4.5 h; library: site-saturation at positions 5, 18, 19, 20
Overview of reported shrunken log2 fold change across a group of sequences:
Form: value (number only, do not type unit).

• RRIRGRPPRLPRPRPRPFTCPRP = -0.22
• RRIRGRPPRLPRPRPRPLWGPRP = 0.583

Any idea what its shrunken log2 fold change is? The sequence is `RRIRPRPPRLPRPRPRPVSTPRP` 0.13

Give its shrunken log2 fold change value. Item: `RRIRFRPPRLPRPRPRPNKYPRP` -0.684

What does the record list as shrunken log2 fold change for `RRIRTRPPRLPRPRPRPDYAPRP` ? 0.0553

I am curious: what shrunken log2 fold change value has been reported for `RRIRFRPPRLPRPRPRPLEWPRP` ? 0.0696

For `RRIRARPPRLPRPRPRPTFLPRP` , what is its reported shrunken log2 fold change? 0.113

Quick one: shrunken log2 fold change of `RRIRWRPPRLPRPRPRPLRCPRP` ? 0.242

Endpoint output: shrunken log2 fold change of `RRIRKRPPRLPRPRPRPCDGPRP` . Value? 0.00408

Given the entry `RRIRKRPPRLPRPRPRPKACPRP` , report its measured shrunken log2 fold change. -0.00804

Recorded shrunken log2 fold change for `RRIRKRPPRLPRPRPRPVYQPRP` , please? 0.131

Tell me the measured shrunken log2 fold change of `RRIRRRPPRLPRPRPRPLLRPRP` , please. 0.44

What value of measured shrunken log2 fold change is listed for `RRIRLRPPRLPRPRPRPANVPRP` ? -0.304

Record request: shrunken log2 fold change value, item `RRIRVRPPRLPRPRPRPHHHPRP` -0.611

I am curious: what shrunken log2 fold change value has been reported for `RRIRLRPPRLPRPRPRPRDEPRP` ? 0.162

I'd like to know its shrunken log2 fold change. The sequence in question is `RRIRSRPPRLPRPRPRPKNIPRP` -0.314

====

# Tested on: Escherichia coli TOP10;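 note: peptides expressed intracellularly from a pBAD plasmid library in pooled LB shake-flask culture, induced with 0.3% L-arabinose, DNA abundance read by NGS, three biological replicates, DESeq2 with apeglm shrinkage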
# protocol: shrunken log2 fold change of peptide-encoding DNA abundance (4.5 h post-induction vs induction); higher = less antimicrobial activity (less host growth inhibition)
# cond: time post-induction: 4.5 h; library: site-saturation at positions 5, 18, 19, 20
Entries annotated with measured shrunken log2 fold change
Kindly provide the number alone.

Please review the following examples before continuing.
- RRIRWRPPRLPRPRPRPHDMPRP: -0.202
- RRIRARPPRLPRPRPRPGAMPRP: 0.959
- RRIRERPPRLPRPRPRPVGNPRP: -0.191
- RRIRWRPPRLPRPRPRPFMPPRP: -0.714
- RRIRFRPPRLPRPRPRPEALPRP: 0.0209
- RRIRHRPPRLPRPRPRPAGAPRP: 0.199

Form entry - test system: Escherichia coli TOP10; read-out: shrunken log2 fold change; sequence: `RRIRCRPPRLPRPRPRPRVSPRP` 0.064

Provide value of shrunken log2 fold change for this record tested with Escherichia coli TOP10: `RRIRCRPPRLPRPRPRPPMQPRP` 0.516

Fill in the recorded shrunken log2 fold change for this sequence, with Escherichia coli TOP10 as test system: `RRIRLRPPRLPRPRPRPQNEPRP` -0.459

# value lookup — system Escherichia coli TOP10, readout shrunken log2 fold change, item `RRIRWRPPRLPRPRPRPTPYPRP` 0.284
